property: melting point (°C)

Example entries begin here.
Problem: For the compound "O=C1COc2ccc(-c3nn[nH]c3-c3ccccn3)cc2N1" , what melting point is on record?
Result: 256

Problem: For the compound "CCN1C(=O)COc2ccc(-c3nn[nH]c3-c3cccc(C)n3)cc21" , what melting point is on record?
Result: 187

Problem: For the compound "Cc1cccc(-c2[nH]nnc2-c2ccc3c(c2)NC(=O)CO3)n1" , what melting point is on record?
Result: 224

[A] O=C1COc2ccc(-c3nn[nH]c3-c3cccc(Cl)c3)cc2N1
[B] Cc1cccc(-c2[nH]nnc2-c2ccc3c(c2)N(CCN2CCOCC2)C(=O)CO3)n1
Problem: A or B : whose melting point is greater? Please indicate the selected item by its label.
Result: A
